- assay text: ChromlogD assay
- Type: physicochemical
- study conditions: reversed phase HPLC column (Gemini NX C18), pH 7.4
observation type: chromatographic logD
API note: the answer field is a bare number with no unit suffix.

Ask: Which chromatographic logD reading was recorded for the compound CC(C)(O)COc1ccc(Br)c2c1B(O)O[C@@H]2CN [EC/11770] ?
Reply: 0.97

* * *

- assay text: AMP (artificial membrane permeability) assay
- Format: in vitro ADME
- study conditions: PAMPA, pH 7.4
observation type: Papp at 3 h (×10⁻⁶ cm/s)
Provide only the numeric value, understood in ×10⁻⁶ cm/s.

Ask: Which Papp at 3 h reading was recorded for the molecule `CC(C)(O)COc1ccc(Br)c2c1B(O)O[C@@H]2CN` ?
Reply: 27.5

* * *

- assay text: Mouse pharmacokinetics, oral administration
- Format: in vivo
- study conditions: female, C57BL/6, whole blood; mouse, oral 1 mg/kg, average (SD); read-out: AUC0–24_1 mg/kg
observation type: AUC
Number first, unit second.

Ask: Which AUC reading was recorded for the compound CC(C)(O)COc1ccc(Br)c2c1B(O)O[C@@H]2CN [EC/11770] ?
Reply: 3560 ng·h/mL

* * *

- assay text: Mouse pharmacokinetics, intravenous administration
- Type: in vivo
- study conditions: male, CD-1, whole blood; mouse, intravenous 1 mg/kg, average (SD)
observation type: half-life (min)
Provide only the numeric value, understood in min.

Ask: Which half-life reading was recorded for the molecule `CC(C)(O)COc1ccc(Br)c2c1B(O)O[C@@H]2CN` ?
Reply: 318

* * *

- assay text: Kinetic aqueous solubility assay (CLND)
- Assay type: physicochemical
- study conditions: aqueous buffer, kinetic from dmso stock, pH 7.4 phosphate-buffered saline
observation type: solubility at 1 h (µM)
Provide only the numeric value, understood in µM.

Ask: Which solubility at 1 h reading was recorded for the compound `CC(C)(O)COc1ccc(Br)c2c1B(O)O[C@@H]2CN` ?
Reply: 349

* * *

- assay text: Mouse pharmacokinetics, intravenous administration
- Assay type: in vivo
- study conditions: male, CD-1; mouse, intravenous 1 mg/kg, whole blood, average (SD)
observation type: AUC(0-inf) (ng·h/mL)
Provide only the numeric value, understood in ng·h/mL.

Ask: Which AUC(0-inf) reading was recorded for the compound `CC(C)(O)COc1ccc(Br)c2c1B(O)O[C@@H]2CN` ?
Reply: 3340

* * *

- assay text: Mouse pharmacokinetics, oral administration
- Format: in vivo
- study conditions: female, C57BL/6, whole blood; mouse, oral 10 mg/kg, average (SD); read-out: AUC0–24_10 mg/kg
observation type: AUC (ng·h/mL)
Provide only the numeric value, understood in ng·h/mL.

Ask: Which AUC reading was recorded for the compound `CC(C)(O)COc1ccc(Br)c2c1B(O)O[C@@H]2CN` ?
Reply: 40500

* * *

- assay text: Mouse pharmacokinetics, intravenous administration
- Format: in vivo
- study conditions: male, CD-1, whole blood; mouse, intravenous 1 mg/kg, average (SD); read-out: Vss
- Protocol: For pharmacokinetic studies, CD-1 male mice (22 to 25 g) were used for intravenous route and C57BL/6 female mice (18 to 20 g) were used for oral route. […] EC/11770 was administered by intravenous route at 1 mg/kg single dose in saline and by oral gavage at 1 mg/kg and 10 mg/kg single doses in 1% methyl cellulose (1% MC). […] The filtrates were analyzed by UPLC-MS/MS for the establishment of compound concentration. […]
observation type: Vd (L/kg)
Provide only the numeric value, understood in L/kg.

Ask: Which Vd reading was recorded for the molecule `CC(C)(O)COc1ccc(Br)c2c1B(O)O[C@@H]2CN` ?
Reply: 2.4
